# method.summary: AUClast in Sprague-Dawley rat at 10 mg/kg, iv
# Format: ADME, organism-based
# Parameters: time 0 - last, dose 10 mg/kg, route intravenous
# experimental.context: plasma
recorded.metric: AUC(0-t) (ng·h/mL)
Numbers only here, please. The scale is ng·h/mL.

Item under review: COc1ccc(-n2cnc3c(-c4ccccc4C)csc3c2=O)cc1 . Reported AUC(0-t)?
8270

###

# method.summary: Plasma concentration in Sprague-Dawley rat at 10 mg/kg, po at 2 hrs
# Format: ADME, organism-based
# Set-up: dose 10 mg/kg, route oral
recorded.metric: concentration at 2 h (ng/mL)
Reply numerically in ng/mL, unit not repeated.

Form field: reported concentration at 2 h of COc1ccc(-n2cnc3c(-c4ccccc4C)csc3c2=O)cc1
150
